# target.system: C3b (biotinylated, captured site-specifically on a streptavidin chip) (UniProt P01024)
# assay.text: SPR (Biacore 3000), single-cycle kinetics, biotinylated C3b on streptavidin chip, peptide as analyte, 1:1 Langmuir fit
Bridge positions count the residues as written; N and C are the ends. Square brackets hold non-standard residues; d marks the D form. Trp(1-Me) = Cn1cc(C[C@H](N)C(=O)O)c2ccccc21; NMeI = CC[C@H](C)[C@H](NC)C(=O)O; Sar = CNCC(=O)O
The reader will find reported pKd values listed item by item below.
Kindly note that pKd refers to -log10 of the concentration in mol/L and answer with the value alone.

Recorded results for 3 binders are shown here.
{"binder": "FICVWQDWGAHRCI (mPhe (N-methyl-Phe) at Xaa0; Trp(Me) at position 4; Sar at position 8; mIle at position 13; C-terminal -NH2; cyclic via Cys2-Cys12 disulfide (compstatin position numbering)) [Peptide 10: mPhe-Ile-[Cys-Val-Trp(Me)-Gln-Asp-Trp-Sar-Ala-His-Arg-Cys]-mIle-NH2]", "pKd": 8.74}
{"binder": "Ac-WCV[Trp(1-Me)]QDW[Sar]AHRC[NMeI]-NH2 (disulfide 2-12; SMILES CC[C@H](C)[C@@H](C(N)=O)N(C)C(=O)[C@@H]1CSSC[C@H](NC(=O)[C@H](Cc2c[nH]c3ccccc23)NC(C)=O)C(=O)N[C@@H](C(C)C)C(=O)N[C@@H](Cc2cn(C)c3ccccc23)C(=O)N[C@@H](CCC(N)=O)C(=O)N[C@@H](CC(=O)O)C(=O)N[C@@H](Cc2c[nH]c3ccccc23)C(=O)N(C)CC(=O)N[C@@H](C)C(=O)N[C@@H](Cc2c[nH]cn2)C(=O)N[C@@H](CCCNC(=N)N)C(=O)N1) [Peptide 19: Ac-Trp-[Cys-Val-Trp(Me)-Gln-Asp-Trp-Sar-Ala-His-Arg-Cys]-mIle-NH2]", "pKd": 9.30}
{"binder": "AICVWQDWGAHRCI (mAla (N-methyl-Ala) at Xaa0; Trp(Me) at position 4; Sar at position 8; mIle at position 13; C-terminal -NH2; cyclic via Cys2-Cys12 disulfide (compstatin position numbering)) [Peptide 13: mAla-Ile-[Cys-Val-Trp(Me)-Gln-Asp-Trp-Sar-Ala-His-Arg-Cys]-mIle-NH2]", "pKd": 8.60}

We next turn to a different binder, shown below.
The binder listed as IICVWQDWGAHRCI (mIle (N-methyl-Ile; printed 'mlle') at Xaa0; Trp(Me) at position 4; Sar at position 8; mIle at position 13; C-terminal -NH2; cyclic via Cys2-Cys12 disulfide (compstatin position numbering)) [Peptide 12: mIle-Ile-[Cys-Val-Trp(Me)-Gln-Asp-Trp-Sar-Ala-His-Arg-Cys]-mIle-NH2] shows pKd equal to 8.62
